System name: UniProt Q9Y285
Sequence (Q9Y285 1-508): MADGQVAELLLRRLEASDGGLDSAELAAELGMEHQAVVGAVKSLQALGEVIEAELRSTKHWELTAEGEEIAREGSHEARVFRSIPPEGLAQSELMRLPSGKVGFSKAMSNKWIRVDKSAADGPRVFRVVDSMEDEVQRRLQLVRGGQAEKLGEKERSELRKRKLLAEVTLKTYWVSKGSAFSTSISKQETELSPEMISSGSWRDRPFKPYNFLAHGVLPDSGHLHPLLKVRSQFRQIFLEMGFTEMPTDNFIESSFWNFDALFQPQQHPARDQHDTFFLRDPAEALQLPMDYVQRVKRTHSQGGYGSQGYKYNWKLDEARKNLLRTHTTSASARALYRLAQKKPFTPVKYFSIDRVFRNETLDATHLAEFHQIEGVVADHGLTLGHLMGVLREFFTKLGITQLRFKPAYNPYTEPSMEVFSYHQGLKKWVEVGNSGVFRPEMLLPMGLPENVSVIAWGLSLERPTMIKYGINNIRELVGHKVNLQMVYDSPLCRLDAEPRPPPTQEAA
Sequence (Q9NSD9 1-589 partner): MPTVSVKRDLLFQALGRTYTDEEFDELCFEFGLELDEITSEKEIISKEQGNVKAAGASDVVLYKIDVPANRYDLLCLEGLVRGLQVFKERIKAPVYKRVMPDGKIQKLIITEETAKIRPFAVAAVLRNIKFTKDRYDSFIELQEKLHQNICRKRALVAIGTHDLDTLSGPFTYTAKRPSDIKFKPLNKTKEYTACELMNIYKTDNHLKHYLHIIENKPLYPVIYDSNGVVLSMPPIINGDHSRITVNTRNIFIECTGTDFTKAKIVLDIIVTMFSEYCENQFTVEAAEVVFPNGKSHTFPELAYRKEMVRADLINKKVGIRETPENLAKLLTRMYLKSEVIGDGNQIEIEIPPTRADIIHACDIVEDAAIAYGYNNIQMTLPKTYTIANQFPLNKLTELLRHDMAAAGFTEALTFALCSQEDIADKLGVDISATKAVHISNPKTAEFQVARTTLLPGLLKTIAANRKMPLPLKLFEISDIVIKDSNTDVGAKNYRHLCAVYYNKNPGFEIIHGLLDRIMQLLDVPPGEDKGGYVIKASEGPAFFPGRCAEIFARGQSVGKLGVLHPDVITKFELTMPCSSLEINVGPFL
Measured quantity: IC50 (µM)
Just the number in µM, nothing appended.

Enquiry: For COC[C@@H]1[C@H](c2ccc(C#Cc3ccccc3)cc2)[C@@H]2CN(C(=O)Nc3ccc(OC4CC4)cc3)C[C@@H](O)[C@@H](O)CN12 , write its IC50.
Return: 12
